Species on record: Rattus norvegicus
test-protocol: DrugMatrix - Regimen: Daily Repeat
Assay type: toxicity, organism-based, Sprague-Dawley
Set-up: regimen Daily Repeat, gender Male, age 6-8 weeks
settings: in vivo, iv, 0 mg/kg, 120 h, tissue Plasma, dose level Control, time 5 day, vehicle 100 % SALINE
measurement-type: LACTATE DEHYDROGENASE (u/L)
Provide the reading as a plain figure in u/L.

CC[C@@]1(O)C(=O)OCc2c1cc1n(c2=O)Cc2cc3ccccc3nc2-1 [CAMPTOTHECIN]; 188
CC1(C)S[C@@H]2[C@H](NC(=O)[C@H](NC(=O)N3CCNC3=O)c3ccccc3)C(=O)N2[C@H]1C(=O)O [AZLOCILLIN]; 320.17

Task: State its LACTATE DEHYDROGENASE for this compound: CN(N=O)C(=O)N[C@@H](C=O)[C@@H](O)[C@H](O)[C@H](O)CO [STREPTOZOCIN]
Output: 471.33

Task: State its LACTATE DEHYDROGENASE for this compound: NCC[C@H](O)C(=O)N[C@@H]1C[C@H](N)[C@@H](O[C@H]2O[C@H](CN)[C@@H](O)[C@H](O)[C@H]2O)[C@H](O)[C@H]1O[C@H]1O[C@H](CO)[C@@H](O)[C@H](N)[C@H]1O [AMIKACIN]
Output: 111.5
